// provenance: ChEMBL document CHEMBL3988442

Measured Percent Effect values are reported for all entries that follow.
study_system: Ubiquitin-activating enzyme e1, putative (Leishmania donovani (strain BPK282A1)) (UniProt E9BSI1)
Sequence (whole entry): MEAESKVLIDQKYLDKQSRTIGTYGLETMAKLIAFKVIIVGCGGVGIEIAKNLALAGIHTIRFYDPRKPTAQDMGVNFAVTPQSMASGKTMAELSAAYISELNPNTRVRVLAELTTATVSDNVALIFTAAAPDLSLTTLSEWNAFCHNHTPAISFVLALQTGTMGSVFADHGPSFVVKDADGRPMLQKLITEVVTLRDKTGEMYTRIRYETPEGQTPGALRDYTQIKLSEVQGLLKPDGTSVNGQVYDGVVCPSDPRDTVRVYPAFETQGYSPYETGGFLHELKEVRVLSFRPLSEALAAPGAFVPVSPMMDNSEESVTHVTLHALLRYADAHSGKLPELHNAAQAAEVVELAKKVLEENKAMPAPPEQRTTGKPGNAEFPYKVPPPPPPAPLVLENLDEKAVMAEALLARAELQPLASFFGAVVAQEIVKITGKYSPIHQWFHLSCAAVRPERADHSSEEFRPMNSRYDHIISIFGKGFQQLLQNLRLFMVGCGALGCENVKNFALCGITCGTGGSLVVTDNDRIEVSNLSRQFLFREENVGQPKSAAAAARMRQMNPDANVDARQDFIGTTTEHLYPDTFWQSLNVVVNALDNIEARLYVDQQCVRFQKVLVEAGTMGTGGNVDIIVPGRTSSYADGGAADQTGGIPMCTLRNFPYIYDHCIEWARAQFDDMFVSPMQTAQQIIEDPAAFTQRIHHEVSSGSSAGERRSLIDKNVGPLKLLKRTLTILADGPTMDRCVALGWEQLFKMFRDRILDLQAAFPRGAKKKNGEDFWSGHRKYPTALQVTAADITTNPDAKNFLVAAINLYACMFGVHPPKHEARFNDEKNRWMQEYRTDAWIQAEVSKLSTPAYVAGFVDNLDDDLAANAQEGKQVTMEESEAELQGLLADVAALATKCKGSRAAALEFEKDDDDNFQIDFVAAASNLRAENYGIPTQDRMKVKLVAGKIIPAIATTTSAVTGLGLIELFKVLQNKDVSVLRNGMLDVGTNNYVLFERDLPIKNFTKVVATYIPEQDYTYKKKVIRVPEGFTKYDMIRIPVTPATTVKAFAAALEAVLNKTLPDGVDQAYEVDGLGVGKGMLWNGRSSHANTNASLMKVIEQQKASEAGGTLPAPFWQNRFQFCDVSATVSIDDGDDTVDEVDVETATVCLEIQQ
experimental_protocol: Leishmania donovani Ubiquitin Activating Enzyme (LdE1)
Type: functional
Parameters: scale not given: direction of the effect not stated beside the values
test_context: 30 µM
Potency and affinity values are given separately.
recorded_metric: Percent Effect (%)

CCc1nc(C2CCCN2Cc2nnc(Cc3ccccc3)o2)no1 (configuration not stated)    0
O=C(CN1CCOC(Cn2cccn2)C1)NCc1cccs1 (configuration not stated)    -2.7
COCc1cccc(NC(C)C(=O)N(C)Cc2ccccc2)c1 (configuration not stated)    10.8
O=C(O)c1cc2c(nc1O)CC(c1cccc(Cl)c1)CC2=O (configuration not stated)    1.33
O=S(=O)(c1cccnc1)N1CCN(CCn2ccnc2)CC1    5.48
Cc1noc(C)c1CN1C[C@@H]2COC[C@H](C(=O)N3CCCCO3)[C@@H]2C1    8
CN(Cc1ncc[nH]1)CC(c1cccs1)N1CCOCC1 (configuration not stated)    13.5
Cn1cnnc1C1CCN(c2cncc(-n3cccn3)n2)CC1    8.11
COCCNC(=O)C1(c2ccccc2C)CCOCC1    2.7
Cn1cc(C2CC(=O)NC23CCN(c2ncc(F)cn2)CC3)cn1 (configuration not stated)    16
Cc1ccc(CN2CCC3(C2)C(=O)N(CC(C)C)c2ccccc23)s1 (configuration not stated)    -16.2
Cc1nccn1C1CCCN(C(=O)c2cc3ccccc3[nH]2)C1 (configuration not stated)    2.53

###

study_system: Tyrosyl-tRNA synthetase, putative (Trypanosoma cruzi (strain CL Brener)) (UniProt Q4DSP6)
Sequence (Q4DSP6 as listed by the source): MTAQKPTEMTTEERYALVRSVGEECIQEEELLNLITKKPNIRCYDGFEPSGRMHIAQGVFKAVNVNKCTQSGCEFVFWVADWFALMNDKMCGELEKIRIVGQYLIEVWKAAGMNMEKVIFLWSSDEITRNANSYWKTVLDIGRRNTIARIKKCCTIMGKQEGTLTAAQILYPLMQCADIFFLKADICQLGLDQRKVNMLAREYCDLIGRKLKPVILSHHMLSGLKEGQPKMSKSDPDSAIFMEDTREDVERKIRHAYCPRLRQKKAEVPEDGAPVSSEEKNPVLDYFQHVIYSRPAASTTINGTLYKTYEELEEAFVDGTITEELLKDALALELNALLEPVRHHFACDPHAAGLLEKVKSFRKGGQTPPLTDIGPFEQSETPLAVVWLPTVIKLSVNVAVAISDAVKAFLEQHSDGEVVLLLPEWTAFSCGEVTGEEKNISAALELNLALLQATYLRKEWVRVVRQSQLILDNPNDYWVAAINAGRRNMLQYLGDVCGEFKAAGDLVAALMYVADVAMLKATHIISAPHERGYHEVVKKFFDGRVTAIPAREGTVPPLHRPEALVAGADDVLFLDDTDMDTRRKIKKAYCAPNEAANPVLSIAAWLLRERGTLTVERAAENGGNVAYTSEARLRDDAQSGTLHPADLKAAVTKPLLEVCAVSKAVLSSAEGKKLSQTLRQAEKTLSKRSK
experimental_protocol: Trypanosoma cruzi tyrosyl tRNA synthetase (TcYRS) _High Tyrosine SOP; also: in the data most compounds retested in dose-response had high values
Format: functional
Parameters: scale not given: direction of the effect not stated beside the values
test_context: 30 µM
recorded_metric: Percent Effect

COCCN(C)CCN1CC2(CCN(C(=O)C3CCOC3)CC2)OC1=O (centres undefined)    7.53%
O=C(Nc1ccnc(OC2CCOC2)c1)c1cc(F)ccc1F (centres undefined)    -5.26%
CCc1nc(CN2CCCN(C(=O)CCc3ccco3)CC2)cs1    7.29%
COCc1ccccc1NC(=O)[C@@H]1CCCN1C(=O)c1ccco1    1.05%
CN(C)CCNC(=O)c1cc(-c2cnc(N3CCCC3)nc2)cn1C    0%
CC(=O)NCC(=O)N1C[C@H](OCc2cccnc2)[C@H]2COC[C@H]21    4.95%
CC(C)Oc1cc(N2C[C@@H](C)O[C@@H](C)C2)nc(N)n1    10.1%
CN(C)CCCNC(=O)CNC(=O)N1CCc2c([nH]c3ccccc23)C1    1.06%
COc1cccc(CNCCc2cc(F)cc3c2OCOC3)c1    0%
O=C(Cc1ccc2c(c1)OCO2)N1CCCN(c2ccccc2)CC1    3.12%
CC1CCN(C(CNC(=O)CCn2cccn2)c2cccs2)CC1 (centres undefined)    6.01%
OCC1CCCN1c1cc(N2CCc3ccccc3C2)ncn1 (centres undefined)    3.81%
CC(NC(=O)c1cc(-c2cccc(Cl)c2)no1)C(=O)N1CCCC1 (centres undefined)    2.13%
Fc1ccc(CNCC2OCCc3cn(CC4CC4)nc32)cc1 (centres undefined)    3.24%
Cn1cc(CN2CCCN(C(=O)c3cc(Cl)cn3C)CC2)cn1    1.47%
COc1ccc(NC(=O)N2CCN(c3ncccn3)CC2)cn1    4.3%
O=C1CC[C@H]2[C@H](CCN2C(=O)C2CCCO2)N1CCN1CCCC1 (some centres undefined)    2.12%
Cc1cc(C)n(C2CCCN(C(=O)c3ccc(NC4CC4)nc3)C2)n1 (centres undefined)    4.76%
O=C(Nc1cc(F)ccc1OCC1CCCO1)N1CCCC1 (centres undefined)    2.91%
C[C@H](O)CNC(=O)c1cnc(-c2ccccc2)nc1O    2.65%
CN(Cc1nc(C2CC2)no1)C1CCCN(c2cccnn2)C1 (centres undefined)    6.4%
O=C(Nc1cccnc1)N1CCC(n2ccc(C(F)(F)F)n2)CC1    1.07%
CCS(=O)(=O)N1CCC(c2nc3ccc(-c4ccccc4)cn3n2)CC1    -24%
CC(C)(C)SCCCC(=O)N1CCC(Nc2cccnn2)CC1    4.43%

###

study_system: Proteasome subunit beta (Trypanosoma cruzi) (UniProt O96673)
Sequence (O96673 as listed by the source): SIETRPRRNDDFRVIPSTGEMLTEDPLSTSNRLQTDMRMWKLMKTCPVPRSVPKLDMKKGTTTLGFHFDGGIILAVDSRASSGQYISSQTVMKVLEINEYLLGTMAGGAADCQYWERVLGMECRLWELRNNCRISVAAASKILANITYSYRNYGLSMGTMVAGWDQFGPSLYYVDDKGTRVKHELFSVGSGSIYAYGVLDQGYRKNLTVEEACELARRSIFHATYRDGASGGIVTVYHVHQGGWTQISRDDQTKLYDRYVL
experimental_protocol: Trypanosoma cruzi proteasome chymotrypsin-like activity (TcProtChymo) assay. Also: in the data most compounds retested in dose-response had high values.
Assay type: functional
Parameters: scale not given: direction of the effect not stated beside the values
test_context: 9.37 µM
recorded_metric: Percent Effect (%)

CCc1nsc(NC2CCCn3nc(CC)nc32)n1 (stereo unspecified)    13.6
CC(C)(C)NC(=O)NC(=O)CNC(C)(C)c1ccc2c(c1)OCCO2    6.67
c1ccc(OCCCNCCn2cccn2)cc1    3.94
N#CC1CCCN(c2nc(-c3ccccc3)nc3c2CCNCC3)C1 (stereo unspecified)    11.2
CC1CCN(S(=O)(=O)c2cccn(CC(=O)N3CCOCC3)c2=O)CC1    7.02
CN(C)CC(=O)N1CCCC2(CCC(=O)N(CCc3c[nH]cn3)C2)C1 (stereo unspecified)    11
O=C(c1ccc2c(c1)OCO2)N1CCC[C@]2(C[C@H](OCC3CC3)CO2)C1    5.37
Cc1nc(C)n(CC2CCCN(Cc3nnc(C(C)(C)C)o3)C2)n1 (stereo unspecified)    7.77
COc1ccc(-c2nc(CN3CC(n4nc(C)cc4C)C3)no2)cc1    14.5
CN(CCCNc1cc(N2CCCC2CO)ncn1)S(C)(=O)=O (stereo unspecified)    16.3
CC(=O)N1CCn2c(COCc3csc(C)n3)cnc2C1C (stereo unspecified)    9.57

###

study_system: Proteasome subunit beta (Trypanosoma cruzi)
experimental_protocol: Trypanosoma cruzi proteasome chymotrypsin-like activity (TcProtChymo) assay. Also: in the data most compounds retested in dose-response had high values.
Type: functional
Parameters: scale not given: direction of the effect not stated beside the values
test_context: 9.37 µM
recorded_metric: Percent Effect (%)

COc1ccc(C(=O)NCC(c2cccn2C)N2CCCC2)c(OC)c1 (stereo unspecified)    18.3
CCc1ccc(NS(=O)(=O)CC2=NC(=O)n3cccc3C2=O)cc1    6.1
Cc1nn(C)c(Cl)c1C1CCCN1c1ncnc2sccc12 (stereo unspecified)    1.4
CCOCC(O)CN1CCN(C(=O)CC(C)(C)C)CC1 (stereo unspecified)    -7.75
CC(CNC(=O)Nc1cn[nH]c1)N1CCOCC1 (stereo unspecified)    15.9
CCCn1[nH]cc/c1=N\C(=O)CN1CCc2c(nc(C(C)C)n2C)C1    11.6
CN1CCN(C[C@@H]2OC[C@H]3CN(Cc4ccsc4)CC[C@H]32)CC1    5.81
CCCN1CCC(NC(=O)c2ccc(F)cc2I)CC1    12.5
Cn1cc(C2CC(=O)NC23CCN(c2ncc(F)cn2)CC3)cn1 (stereo unspecified)    3.08
COc1cc(C(=O)NC(CC(=O)O)c2cccs2)cc(Cl)c1OC (stereo unspecified)    20.9
O=C(c1ccc2c(c1)CCC2)N1C[C@@H](CN2CCOCC2)[C@@H](CO)C1    1.22
